# Test target: intestinal alkaline phosphatase (Alpi), mouse
# Assay explanation: activators of mouse IAP enzyme, SAR follow-up, biochemical, luminescence, set 2 (AID 588609)
# Run conditions: purified muIAP, CDP-Star luminescence, 30 min
Calls of active or inactive are those of the source.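 How the source made its calls: active means compounds whose averaged half-maximal activating concentration falls below 100 micromolar; inactive means the rest.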
Classes used: active, inactive

>  <Compound>
Cc1ccc(CNC(=S)Nc2cccc(S(=O)(=O)N(C)C)c2)cc1

>  <Class name>
active

$$$$
>  <Compound>
CN(C)S(=O)(=O)c1cccc(NC(=S)NCc2ccc(Cl)cc2)c1

>  <Class name>
active

$$$$
>  <Compound>
Cc1ccc(S(=O)(=O)N(C)C)cc1NC(=S)NC(C)CCCC(C)C (stereo not given)

>  <Class name>
active

$$$$
>  <Compound>
CC1CC(NC(=S)Nc2cccc(S(=O)(=O)N(C)C)c2)CC(C)N1 (stereo not given)

>  <Class name>
inactive

$$$$
>  <Compound>
CN(C)S(=O)(=O)c1ccc(NC(=S)NCCC(c2ccccc2)c2ccccc2)cc1

>  <Class name>
active

$$$$

----------
# Test target: intestinal alkaline phosphatase (Alpi), mouse
# Assay explanation: activators of mouse IAP enzyme, SAR follow-up, biochemical, luminescence, set 2 (AID 588609)
# Run conditions: purified muIAP, CDP-Star luminescence, 30 min
The source made the active and inactive calls.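 Rule for the calls: active = compounds whose averaged half-maximal activating concentration falls below 100 micromolar; inactive = the rest.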
Outcomes: active, inactive

>  <Molecule>
CCN(CC)S(=O)(=O)c1ccc(NC(=S)NCCC(c2ccccc2)c2ccccc2)cc1

>  <Class name>
active

$$$$
>  <Molecule>
Cc1ccc(C)c(NC(=S)Nc2ccc(S(=O)(=O)N3CCCCC3)cc2)c1

>  <Class name>
inactive

$$$$
>  <Molecule>
O=S(=O)(c1ccc(NC(=S)NC(c2ccccc2)c2ccccc2)cc1)N1CCCCC1

>  <Class name>
active

$$$$
>  <Molecule>
CC1CCN(S(=O)(=O)c2ccc(NC(=S)NC(c3ccccc3)c3ccccc3)cc2)CC1

>  <Class name>
active

$$$$
>  <Molecule>
CCN(CC)S(=O)(=O)c1ccc(NC(=S)NCC(c2ccccc2)c2ccccc2)cc1

>  <Class name>
active

$$$$
>  <Molecule>
O=S(=O)(c1ccc(NC(=S)NCC(c2ccccc2)c2ccccc2)cc1)N1CCCC1

>  <Class name>
active

$$$$
>  <Molecule>
CN(C)S(=O)(=O)c1ccc(NC(=S)NCCN2CCCC2)cc1

>  <Class name>
inactive

$$$$
>  <Molecule>
O=S(=O)(c1ccc(NC(=S)NCc2cccc(Cl)c2)cc1)N1CCCCC1

>  <Class name>
active

$$$$
>  <Molecule>
CC(CCc1ccccc1)NC(=S)Nc1cccc(S(=O)(=O)N(C)C)c1 (centres undefined)

>  <Class name>
active

$$$$
>  <Molecule>
O=C(NC(=S)Nc1cc(S(=O)(=O)N2CCOCC2)ccc1N1CCOCC1)c1ccco1

>  <Class name>
inactive

$$$$
>  <Molecule>
O=c1c2ccccc2[nH]c(=S)n1-c1cccc(S(=O)(=O)N2CCCC2)c1

>  <Class name>
inactive

$$$$
>  <Molecule>
Cc1ccccc1CNC(=S)Nc1ccc(S(=O)(=O)N(C)C)cc1

>  <Class name>
active

$$$$
>  <Molecule>
COc1cccc(CCNC(=S)Nc2cccc(S(=O)(=O)N(C)C)c2)c1

>  <Class name>
active

$$$$
>  <Molecule>
COc1ccc(CNC(=S)Nc2ccc(S(=O)(=O)N3CCCCC3)cc2)cc1OC

>  <Class name>
active

$$$$
>  <Molecule>
Cc1ccc(CNC(=S)Nc2ccc(S(=O)(=O)N(C)C)cc2)cc1

>  <Class name>
active

$$$$
>  <Molecule>
CN(CCc1ccccn1)C(=S)Nc1cccc(S(=O)(=O)N(C)C)c1

>  <Class name>
inactive

$$$$
>  <Molecule>
CCN(CC)CCCNC(=S)Nc1cccc(S(=O)(=O)N(C)C)c1

>  <Class name>
inactive

$$$$
>  <Molecule>
CN(C)S(=O)(=O)c1cccc(NC(=S)NCCCn2ccnc2)c1

>  <Class name>
inactive

$$$$
>  <Molecule>
COc1ccc(CCNC(=S)Nc2ccc(S(=O)(=O)N3CCCCC3)cc2)cc1OC

>  <Class name>
active

$$$$
>  <Molecule>
CCCCCCC(C)NC(=S)Nc1cc(S(=O)(=O)N(C)C)ccc1C (centres undefined)

>  <Class name>
active

$$$$
>  <Molecule>
CN(C)S(=O)(=O)c1cccc(NC(=S)NC(c2ccccc2)c2ccccc2)c1

>  <Class name>
active

$$$$
>  <Molecule>
Cc1ccc(S(=O)(=O)N(C)C)cc1NC(=S)NCCCn1ccnc1

>  <Class name>
inactive

$$$$
>  <Molecule>
CN(C)S(=O)(=O)c1ccc(NC(=S)NCCc2cccc(Br)c2)cc1

>  <Class name>
active

$$$$
>  <Molecule>
Cc1ccc(S(=O)(=O)N(C)C)cc1NC(=S)NC1CCN(Cc2ccccc2)CC1

>  <Class name>
inactive

$$$$
>  <Molecule>
CN(C)S(=O)(=O)c1ccc(NC(=S)NCCc2ccccc2)cc1

>  <Class name>
inactive

$$$$
>  <Molecule>
CN(C)S(=O)(=O)c1cccc(NC(=S)NCCN2CCCC2)c1

>  <Class name>
inactive

$$$$
>  <Molecule>
CN(CCc1ccccc1)C(=S)Nc1cccc(S(=O)(=O)N(C)C)c1

>  <Class name>
inactive

$$$$
>  <Molecule>
CCN(CC)S(=O)(=O)c1ccc(NC(=S)NC(c2ccccc2)c2ccccc2)cc1

>  <Class name>
active

$$$$
>  <Molecule>
CN(C)S(=O)(=O)c1ccc(NC(=S)NCC(c2ccccc2)c2ccccc2)cc1

>  <Class name>
active

$$$$
>  <Molecule>
O=S(=O)(c1ccc(NC(=S)NC(c2ccccc2)c2ccccc2)cc1)N1CCCC1

>  <Class name>
active

$$$$
>  <Molecule>
CN(C)CC(C)(C)CNC(=S)Nc1cccc(S(=O)(=O)N(C)C)c1

>  <Class name>
inactive

$$$$
>  <Molecule>
CN(C)S(=O)(=O)c1cccc(NC(=S)NCCC(=O)N2CCCC2)c1

>  <Class name>
inactive

$$$$
>  <Molecule>
CN(C)S(=O)(=O)c1ccc(NC(=S)NCCc2cccc(O)c2)cc1

>  <Class name>
inactive

$$$$
>  <Molecule>
CC(CNC(=S)Nc1cccc(S(=O)(=O)N(C)C)c1)N1CCN(c2ccccc2)CC1 (centres undefined)

>  <Class name>
active

$$$$
>  <Molecule>
COc1ccc(CCNC(=S)Nc2ccc(S(=O)(=O)N3CCCCC3)cc2)cc1

>  <Class name>
active

$$$$
>  <Molecule>
CN(C)S(=O)(=O)c1ccc(NC(=S)NC(c2ccccc2)c2ccccc2)cc1

>  <Class name>
active

$$$$
>  <Molecule>
CN(C)S(=O)(=O)c1cccc(NC(=S)NCCc2ccc(F)cc2)c1

>  <Class name>
inactive

$$$$
>  <Molecule>
CN(C)S(=O)(=O)c1cccc(NC(=S)NCCc2ccccc2)c1

>  <Class name>
active

$$$$
>  <Molecule>
CN(C)CCCNC(=S)Nc1cccc(S(=O)(=O)N(C)C)c1

>  <Class name>
inactive

$$$$
